# ASSAY_PROTOCOL: Equilibrium solubility of compound in PBS by HPLC analysis
# Type: physicochemical
Listed here: items and their measured solubility thermodynamic.

| SMILES_TEXT | READOUT | VALUE_OBSERVED |
| --- | --- | --- |
| Cc1nc2cccc3c2nc1N[C@@H](C)CCC[C@H]1CNC(=O)c2cc-3[nH]c21 | solubility thermodynamic | < 5 µM |

Summary for this molecule, `Cc1nc2cccc3c2nc1NC/C=C\C[C@H]1CNC(=O)c2cc-3[nH]c21` : solubility thermodynamic is < 5 µM

Item: `Cc1nc2cccc3c2nc1N[C@H](C)CCC[C@H]1CNC(=O)c2cc-3[nH]c21` | solubility thermodynamic: < 5 µM

Entry `Cc1nc2cccc3c2nc1NC[C@@H](C)CC[C@H]1CNC(=O)c2cc-3[nH]c21` , solubility thermodynamic reported as < 5 µM

Field solubility thermodynamic (entry `Cc1nc2cccc3c2nc1NC[C@H](C)CC[C@H]1CNC(=O)c2cc-3[nH]c21` ) reads < 5 µM
